REPORTED_PROPERTY: melting point

Input line: So what does the record say about melting point for COC(=O)c1cc(Cl)cc(Cl)n1 ?
Output line: 75 to 77 °C

Input line: So what does the record say about melting point for CCCCOCCOc1ccc(-c2ccc3c(c2)C=C(C(=O)O)CCN3c2ccc(S(=O)(=O)N(C)C)cc2)cc1 ?
Output line: 236 to 238 °C

Input line: So what does the record say about melting point for CCn1cc(C(=O)O)c(=O)c2cc(F)c(N3CCNC(c4cc(C)cs4)C3)cc21 (stereo unspecified) ?
Output line: 230 °C

Input line: So what does the record say about melting point for Cc1cc([N+](=O)[O-])ccc1NCC1CCCO1 (stereo unspecified) ?
Output line: 56 to 58 °C

Input line: So what does the record say about melting point for CN1CCC(OC2c3ccccc3CCn3cc(-c4ccc(Br)cc4)nc32)CC1 (stereo unspecified) ?
Output line: 142 °C

Input line: So what does the record say about melting point for OC[C@@H]1Cc2cc3ccccc3n2C[C@H]1CO (relative stereo) ?
Output line: 162 to 163 °C

Input line: So what does the record say about melting point for CCCCOC(=O)c1ccc(N2CCN(CCCS(=O)(=O)O)CC2)cc1 ?
Output line: 232 to 234 °C

Input line: So what does the record say about melting point for CCCOc1ccc(-c2ccc3c(c2)C=C(C(=O)Nc2ccc(CN(C)C4CCOCC4)cc2)CCS3(=O)=O)cc1OCC ?
Output line: 203 to 205 °C

Input line: So what does the record say about melting point for COC1(c2ccc(Sc3ccc4c(c3)CCC(=S)N4C)s2)CCOCC1 ?
Output line: 100 to 102 °C

Input line: So what does the record say about melting point for CC1(C)C=C(C(=O)NCCC#N)c2cc(C(F)(F)C(F)(F)F)ccc2O1 ?
Output line: 163 to 164 °C

Input line: So what does the record say about melting point for ClC1(Cl)C(Cl)(Cl)C1(Cl)c1ccccn1 ?
Output line: 132 to 134 °C

Input line: So what does the record say about melting point for Cc1cc(CCC(=O)OC(C)(C)C)cc(-c2nc(=O)c3ccc(Cl)cc3s2)n1 ?
Output line: 186 to 188 °C

Input line: So what does the record say about melting point for C=CCCOc1ccc(C[C@H](NC(=O)OC(C)(C)C)C(=O)N[C@@H](CC(C)C)C(=O)N[C@@H](CC=C)C(=O)OC)cc1 ?
Output line: 166 to 168 °C

Input line: So what does the record say about melting point for COCCN1CCc2ccc(Nc3ncc(Cl)c(N[C@@H]4CCCC[C@H]4NC(=O)C(F)(F)F)n3)cc2CC1 ?
Output line: 180 to 182 °C

Input line: So what does the record say about melting point for COC(=O)Cc1ccc(OCCNC(=O)C2Cc3ccccc3N2S(=O)(=O)c2ccc(-c3cc(C(F)(F)F)ccc3OC)cc2)cc1 (stereo unspecified) ?
Output line: 61 to 64 °C

Input line: So what does the record say about melting point for CNc1cc2c(Nc3ccc(Sc4nccn4C)c(Cl)c3)c(C#N)cnc2cc1N1CCC(N2CCCC2)CC1 ?
Output line: 242 to 250 °C

###

Record form. Attribute: melting point. Fill in for each entry.

Input line: So what does the record say about melting point for COC(=O)C1=C(C)NC(C)=C(C(=O)OC)C1c1cc([N+](=O)[O-])ccc1OC/C=C/CCl ?
Output line: 206 to 207 °C

Input line: So what does the record say about melting point for Cn1cc(-c2cc3cccnc3[nH]2)c2cc(C(=O)NC(CO)CO)ccc21 ?
Output line: 178 to 179 °C

Input line: So what does the record say about melting point for CCCCCN(CCC12CC3CC(CC(C3)C1)C2)C(=O)NC(C)CCc1ccncc1 (stereo not drawn) ?
Output line: 128 to 129 °C

Input line: So what does the record say about melting point for CCN1CCC2(c3cccc(O)c3)Cc3[nH]c(C(=O)N4CCCC4)c(C)c3CC2C1 (stereo not drawn) ?
Output line: 224 to 226 °C

Input line: So what does the record say about melting point for CC(C)(C)OC(=O)CNC(=O)CC(c1ccccc1)c1ccccc1 ?
Output line: 77 to 81 °C

Input line: So what does the record say about melting point for CSc1ncc2ccc(Cl)nc2n1 ?
Output line: 201 to 203 °C

Input line: So what does the record say about melting point for CCC(=O)CC(=O)C1CCC2C3CCC4CC(O)CCC4(C)C3C(=O)CC12C (stereo not drawn) ?
Output line: 128 to 130 °C

Input line: So what does the record say about melting point for CC(C)c1c(/C=C/C=O)c(-c2ccccc2)c2c3ccccc3cnn12 ?
Output line: 162 to 164 °C

###

Record form. Attribute: melting point. Fill in for each entry.

Input line: So what does the record say about melting point for COC(=O)C1=C(C(OC)OC)NC(C)=C(C(=O)OC(C)C)C1c1ccccc1[N+](=O)[O-] (stereo not drawn) ?
Output line: 143 to 145 °C

Input line: So what does the record say about melting point for CCOC(=O)c1cnc2nc(C)c(OCC)cc2c1O ?
Output line: 255 to 258 °C

Input line: So what does the record say about melting point for N#Cc1ccc(C2C(=O)N(CC3CC3)Cc3cncn32)cc1 (stereo not drawn) ?
Output line: 146 to 147 °C

###

Record form. Attribute: melting point. Fill in for each entry.

Input line: So what does the record say about melting point for CC(Cl)(Cl)C(NC(=O)c1ccc(Br)cc1)NC(=NC#N)Nc1ccc(Cl)nc1 (stereo not given) ?
Output line: 215 to 216 °C

Input line: So what does the record say about melting point for CC(C)c1ccc(-c2c(Cl)c(CCl)nc3sc4c(c23)CCN(Cc2ccccc2)C4)cc1 ?
Output line: 190 to 192 °C

Input line: So what does the record say about melting point for CCOC(=O)C(=NOC)C(C)=NNC(C)=O ?
Output line: 190 to 192 °C

Input line: So what does the record say about melting point for CCCCOc1ccc2c(=O)c(S(C)=O)cn(C)c2c1 (stereo not given) ?
Output line: 148 to 150 °C

Input line: So what does the record say about melting point for O=C(COc1ccc(CCNCC(O)COc2ccccc2)cc1)NO (stereo not given) ?
Output line: 126 to 128 °C

Input line: So what does the record say about melting point for CCOC(=O)NNc1cc(C)c(-c2ccc(Br)cc2)nn1 ?
Output line: 178 to 179 °C

Input line: So what does the record say about melting point for CC(C)(C)OC(=O)NN=Cc1ccccc1 ?
Output line: 184 to 186 °C

Input line: So what does the record say about melting point for Cc1ccc(-c2nc(C)cc(Cl)n2)cc1 ?
Output line: 103 to 104 °C

Input line: So what does the record say about melting point for O=C(O)[C@@H]1Cc2c(ncn2Cc2ccccc2)CN1C(=O)C(c1ccc(Cl)cc1)c1ccc(Cl)cc1 ?
Output line: 162 to 170 °C

Input line: So what does the record say about melting point for COc1cc(CN/C=C2\C(=O)NC(=O)c3ccc(-c4ccc(Cl)cc4)cc32)cc(O)c1OC ?
Output line: 240 to 241 °C

###

Record form. Attribute: melting point. Fill in for each entry.

Input line: So what does the record say about melting point for Cc1ccc(C=Cc2ccccc2C(=O)O)cc1 ?
Output line: 80 to 82 °C

Input line: So what does the record say about melting point for CCCc1ccccc1OCCCOc1ccc2c(=O)cc(-c3nnn[nH]3)oc2c1 ?
Output line: 191 to 193 °C

Input line: So what does the record say about melting point for CC(C)CN1C(=O)CCC(c2ccccc2Cl)c2ccccc21 (configuration not stated) ?
Output line: 139 to 140 °C

Input line: So what does the record say about melting point for O=C1C(O)OCN1c1ccc(Cl)c(Br)c1 (configuration not stated) ?
Output line: 139 to 140 °C

Input line: So what does the record say about melting point for CCCc1c(OCCCOc2c(C(C)=O)ccc(OCC(=O)O)c2CCC)ccc(C(C)=O)c1O ?
Output line: 124 to 125 °C

Input line: So what does the record say about melting point for Cc1cc(C2=NOC(c3cc(C(F)(F)F)cc(C(F)(F)F)c3)(C(F)(F)F)C2)ccc1Br (configuration not stated) ?
Output line: 108 to 110 °C

Input line: So what does the record say about melting point for Cc1nc(NC(=O)c2cnn3c(C(F)(F)F)cc(-c4ccc(C(F)(F)F)cc4)nc23)sc1S(=O)(=O)N(C)CCO ?
Output line: 266 °C

Input line: So what does the record say about melting point for O=S1(=O)N=CN(C2CC2)c2c(F)cc(F)c(F)c21 ?
Output line: 166 to 168 °C

Input line: So what does the record say about melting point for N#Cc1cnc2sc(Br)cc2c1O ?
Output line: > 255 °C

Input line: So what does the record say about melting point for CC(C)(C)OC(=O)NOCC(O)c1ccccc1 (configuration not stated) ?
Output line: 97 to 99 °C

Input line: So what does the record say about melting point for COCCc1nc2c(N)nc3ccccc3c2n1CCCCNC(=O)c1cc2ccccc2cn1 ?
Output line: 199 to 200 °C

Input line: So what does the record say about melting point for COC(=O)c1ccc(C(=O)c2c(O)cccc2F)cc1 ?
Output line: 101 °C
